List of EC50 values.
- Tested on: immature human dorsal root ganglia neurons
- Method Summary: cells
- Format: cell-based
- Condition Context: Homo sapiens, Neuron; hit confirmation; V not affected at HTC: 4 x HTC used as surrogate; read-out: EC50(V), viability, surrogate marked ♦
Express it in µM; write the number only.

Compound | Study System | EC50, µM
CCCCNC(=O)OCC#CI | immature human dorsal root ganglia neurons | 66

Q: Field request: EC50 | item: COc1ccc2cc3[n+](cc2c1OC)CCc1cc2c(cc1-3)OCO2 [Berberine chloride]
A: 165

These data points were gathered from paper PMC10266261.
